Measured values drawn from paper PMC9375364 for this set.

Please respond with reported IC50 for every item in the list.
ASSAYED SYSTEM: PSD95-nNOS (GFP-PSD95 coupled to His-nNOS on magnetic Fe-MOF) (Rattus norvegicus (nNOS); Homo sapiens (PSD95), UniProt P29476+P78352)
Construct: gene Nos1; two-species complex; myc-His-nNOS (pcDNA3.1) and GFP-PSD95-Flag (pcDNA3.1), total synthesized genes, expressed in HEK293T, from RIPA lysates; His-nNOS immobilized on magnetic Fe-MOF, then GFP-PSD95 coupled
Sequence (P29476 whole entry): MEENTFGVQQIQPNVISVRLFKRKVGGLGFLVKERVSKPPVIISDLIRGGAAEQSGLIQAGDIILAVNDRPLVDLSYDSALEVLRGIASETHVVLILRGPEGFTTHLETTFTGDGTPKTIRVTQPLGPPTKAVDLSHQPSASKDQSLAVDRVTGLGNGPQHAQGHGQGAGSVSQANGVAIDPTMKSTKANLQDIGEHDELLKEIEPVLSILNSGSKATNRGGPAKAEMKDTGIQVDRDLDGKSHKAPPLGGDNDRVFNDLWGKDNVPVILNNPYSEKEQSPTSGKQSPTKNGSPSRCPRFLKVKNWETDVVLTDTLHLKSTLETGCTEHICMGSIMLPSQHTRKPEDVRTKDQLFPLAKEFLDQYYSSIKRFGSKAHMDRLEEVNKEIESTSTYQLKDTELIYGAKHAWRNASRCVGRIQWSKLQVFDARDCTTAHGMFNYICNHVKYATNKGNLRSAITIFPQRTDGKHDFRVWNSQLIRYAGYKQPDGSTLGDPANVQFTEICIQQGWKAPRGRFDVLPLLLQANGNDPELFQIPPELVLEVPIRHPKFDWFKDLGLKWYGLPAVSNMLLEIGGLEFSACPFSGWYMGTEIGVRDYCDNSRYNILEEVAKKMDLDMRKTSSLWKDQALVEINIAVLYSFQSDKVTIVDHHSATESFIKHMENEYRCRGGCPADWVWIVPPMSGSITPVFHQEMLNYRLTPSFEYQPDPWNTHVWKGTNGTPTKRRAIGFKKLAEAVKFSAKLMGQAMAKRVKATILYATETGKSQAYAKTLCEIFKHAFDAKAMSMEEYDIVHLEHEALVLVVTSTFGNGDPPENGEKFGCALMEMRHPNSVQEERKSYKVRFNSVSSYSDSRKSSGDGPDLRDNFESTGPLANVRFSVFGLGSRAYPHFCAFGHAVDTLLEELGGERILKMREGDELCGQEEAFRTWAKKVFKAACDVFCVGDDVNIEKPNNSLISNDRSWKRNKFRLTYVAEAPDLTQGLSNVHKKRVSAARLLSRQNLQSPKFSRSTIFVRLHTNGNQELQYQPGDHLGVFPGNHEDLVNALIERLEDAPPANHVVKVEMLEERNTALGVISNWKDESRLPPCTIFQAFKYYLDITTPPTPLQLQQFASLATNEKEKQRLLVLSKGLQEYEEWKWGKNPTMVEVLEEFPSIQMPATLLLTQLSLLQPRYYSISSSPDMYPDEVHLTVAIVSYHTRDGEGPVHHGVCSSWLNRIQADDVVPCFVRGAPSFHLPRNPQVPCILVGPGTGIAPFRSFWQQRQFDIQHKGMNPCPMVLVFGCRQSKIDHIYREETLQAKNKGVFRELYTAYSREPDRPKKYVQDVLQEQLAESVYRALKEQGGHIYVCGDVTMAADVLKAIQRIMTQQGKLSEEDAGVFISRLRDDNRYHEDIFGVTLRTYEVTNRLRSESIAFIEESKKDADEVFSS
Sequence (P78352 whole entry): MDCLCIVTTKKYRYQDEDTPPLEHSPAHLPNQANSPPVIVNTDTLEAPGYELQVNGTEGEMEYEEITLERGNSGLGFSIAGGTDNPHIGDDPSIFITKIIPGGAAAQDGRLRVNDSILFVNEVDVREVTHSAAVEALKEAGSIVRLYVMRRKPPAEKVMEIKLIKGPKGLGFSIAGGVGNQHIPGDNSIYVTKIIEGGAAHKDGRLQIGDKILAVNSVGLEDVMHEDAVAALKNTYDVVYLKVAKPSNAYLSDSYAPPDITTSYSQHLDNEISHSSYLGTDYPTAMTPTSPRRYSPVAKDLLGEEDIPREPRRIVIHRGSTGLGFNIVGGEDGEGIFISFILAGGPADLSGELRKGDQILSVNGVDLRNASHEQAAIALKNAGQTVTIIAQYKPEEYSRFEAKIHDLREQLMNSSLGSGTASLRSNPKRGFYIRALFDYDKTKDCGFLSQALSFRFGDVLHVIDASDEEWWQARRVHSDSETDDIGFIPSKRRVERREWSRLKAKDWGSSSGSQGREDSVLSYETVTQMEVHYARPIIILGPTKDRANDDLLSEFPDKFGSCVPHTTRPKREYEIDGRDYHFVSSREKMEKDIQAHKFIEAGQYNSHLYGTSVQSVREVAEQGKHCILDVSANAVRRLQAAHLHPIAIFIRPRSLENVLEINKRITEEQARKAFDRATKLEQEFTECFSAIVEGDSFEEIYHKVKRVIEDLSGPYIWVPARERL
ASSAY NOTES: uncoupling of GFP-PSD95 from His-nNOS/Fe-MOF, magnetic separation, fluorescence
Format: binding
Source text: uncoupling of GFP-PSD95 from His-nNOS/Fe-MOF, magnetic separation, fluorescence on PSD95-nNOS (GFP-PSD95 coupled to His-nNOS on magnetic Fe-MOF)

Exercise: Find the recorded IC50 belonging to COc1cc2c[n+](C)c3c4cc5c(cc4ccc3c2cc1OC)OCO5 [compound 7, Nitidine chloride] and report it.
Solution: > 1800 µM

Exercise: Find the recorded IC50 belonging to O=C(O)c1ccc(NCc2cc(Cl)cc(Cl)c2O)cc1O [ZL006, reference compound] and report it.
Solution: 1800 µM

Exercise: Find the recorded IC50 belonging to COc1cc(/C=C/c2cc(O)cc(O)c2)ccc1O [compound 6, Isorhapontigenin] and report it.
Solution: > 1800 µM

Exercise: Find the recorded IC50 belonging to O=C(O)[C@H]1O[C@@H](Oc2cc3oc(-c4ccccc4)cc(=O)c3c(O)c2O)[C@H](O)[C@@H](O)[C@@H]1O [compound 1, Baicalin] and report it.
Solution: 104 µM

Exercise: Find the recorded IC50 belonging to COc1cc(O)c2c(c1)C(=O)c1cc(C)cc(O)c1C2=O [compound 9, Physcion] and report it.
Solution: > 1800 µM

Exercise: Find the recorded IC50 belonging to O=c1cc(-c2ccccc2)oc2cc(O)c(O)c(O)c12 [compound 2, Baicalein] and report it.
Solution: 144 µM

Exercise: Find the recorded IC50 belonging to COc1ccc2c(c[n+](C)c3c4cc5c(cc4ccc23)OCO5)c1OC [compound 8, Chelerythrine] and report it.
Solution: > 1800 µM

* * *

ASSAYED SYSTEM: PSD95-nNOS (GFP-PSD95 coupled to His-nNOS on magnetic Fe-MOF) (Rattus norvegicus (nNOS); Homo sapiens (PSD95), UniProt P29476+P78352)
Construct: gene Nos1; two-species complex; myc-His-nNOS (pcDNA3.1) and GFP-PSD95-Flag (pcDNA3.1), total synthesized genes, expressed in HEK293T, from RIPA lysates; His-nNOS immobilized on magnetic Fe-MOF, then GFP-PSD95 coupled
ASSAY NOTES: uncoupling of GFP-PSD95 from His-nNOS/Fe-MOF, magnetic separation, fluorescence
Format: binding
TEST CONTEXT: PBS pH 7.4, 0.1% DMSO, 4 °C, 5 h; immobilized nNOS; inhibition of PSD95-nNOS coupling, binding chain not told
QUANTITY MEASURED: IC50
Please answer using a numeric value trailed by its unit.

Exercise: Find the recorded IC50 belonging to Oc1cc(O)cc(/C=C/c2c(O)cccc2O)c1 and report it.
Solution: 492 µM
